- Protocol details: Waters ACQUITY UPLC HSS T3, 0.4 mL/min; A: water + 0.1% formic acid; B: acetonitrile + 0.1% formic acid; gradient (min/%B) 0/5 1.5/5 12/95 14/95 14.01/100 17/100
- Condition label: stereoisomer not certain

Compound: CC(C)(OC1OC(CO)C(O)C(O)C1O)C1CCC(O)(CO)CC1 (stereo unspecified)
LC retention time, min: 5.08

Compound: CCCCCC1OC(=O)C(C(C)CC)N(C)C(=O)C2CCCN2C(=O)C(C(C)C)OC(=O)C(Cc2ccccc2)N(C)C(=O)C(C(C)C)NC(=O)C1C (stereo unspecified)
LC retention time, min: 9.85

Compound: CC1(C)CCC2(C(=O)O)CCC3(C)C(=CCC4C5(C)CC(O)C(OC(=O)C=Cc6ccc(O)cc6)C(C)(C)C5CCC43C)C2C1 (stereo unspecified)
LC retention time, min: 11

Compound: CCCCCC=CCC=CCC=CCCCCC(=O)OC(COC(=O)CCCCCCCCCCCCCCC)COP(=O)(O)OCC(O)CO (stereo unspecified)
LC retention time, min: 13.9

Compound: CC(C)C(N)C(=O)O (stereo unspecified)
LC retention time, min: 1.02

Compound: O=C(O)CC1CCC(=O)C1CC=CCCOC1OC(CO)C(O)C(O)C1O (stereo unspecified)
LC retention time, min: 0.755

Compound: CC(C)N
LC retention time, min: 0.706

Compound: C=C1C(=O)OC2C1CCC(=O)CC1(C)CCC(O)OC21 (stereo unspecified)
LC retention time, min: 6.31

Compound: CCCCCCCCCCCCCCCCCCC(=O)OCC(O)COP(=O)(O)OCC(N)C(=O)O (stereo unspecified)
LC retention time, min: 5.17

Compound: CCCC(N)C(=O)O (stereo unspecified)
LC retention time, min: 1.02

Compound: CC(C)=CCCC(C)CCOC1OC(CO)C(O)C(O)C1OC1OC(CO)C(O)C(O)C1O (stereo unspecified)
LC retention time, min: 4.52

Compound: COc1cc2c(cc1OC)CN(C)CC2
LC retention time, min: 4.98

Compound: NC(CCC(=O)O)C(=O)O (stereo unspecified)
LC retention time, min: 0.786

Compound: CC12CCC(=O)C=C1CCC1C2C(O)CC2(C)C(C(O)CC(=O)O)CCC12 (stereo unspecified)
LC retention time, min: 5.01

Compound: CCCCCCCCCCCCCCCCCCOC(=O)CC(O)(CC(=O)O)C(=O)O (stereo unspecified)
LC retention time, min: 10.5

Compound: CC(C)=CCCC(C)(OC1OC(CO)C(O)C(O)C1O)C1CCC2(C)C1C(O)CC1C3(C)CCC(OC4OC(CO)C(O)C(O)C4O)C(C)(C)C3CCC12C (stereo unspecified)
LC retention time, min: 9.82

Compound: CC=CC=CC=CC1=NCCCC1
LC retention time, min: 9.09

Compound: CC(=CC(=O)OC1OC(CO)C(O)C(O)C1O)CCC=C(C)CCC(O)C(C)(C)O (stereo unspecified)
LC retention time, min: 9.03

Compound: CCCCCCCCCCCCCCCC(=O)OCC(COP(=O)([O-])OCC[N+](C)(C)C)OC(=O)CCCC(O)C=CC=O (stereo unspecified)
LC retention time, min: 5.43

Compound: CCCCCC=CCC=CCC=CCCCCC(=O)OCC(COP(=O)(O)OCC(O)CO)OC(=O)CCCCCCCCCCCCCCC (stereo unspecified)
LC retention time, min: 13.9

Compound: CCCCCCC=CCCCCCCCC(=O)OCC(COP(=O)(O)OCC(O)CO)OC(=O)CCCCCCCC=CCCCCCC (stereo unspecified)
LC retention time, min: 13

Compound: CCCCN(CCCN(CCCN(CCCN)CCCN)CCCN(CCCN)CCCN)CCCN(CCCN(CCCN)CCCN)CCCN(CCCN)CCCN
LC retention time, min: 0.706

Compound: C[N+](C)(C)CCOP(=O)([O-])OCC(O)CO (stereo unspecified)
LC retention time, min: 0.761

Compound: CNC(C)(C)C(=O)O
LC retention time, min: 1.02

Compound: Nc1ncnc2c1ncn2C1OC(CO)C(O)C1OP(=O)(O)O (stereo unspecified)
LC retention time, min: 0.934

Compound: CC1(COC(=O)c2ccccc2)CCC2(C)CCC3(C)C4=CCC5C(C)(CCC(OC(=O)c6ccc(N)cc6)C5(C)C)C4=CCC3(C)C2C1 (stereo unspecified)
LC retention time, min: 10.9

Compound: C=C(CO)C1CCC(C)(O)C(OC2OC(CO)C(O)C(O)C2O)C1 (stereo unspecified)
LC retention time, min: 3.99

Compound: CC1=CC(O)CC(C)(C)C1(O)C=CC(C)OC1OC(COC2OCC(O)(CO)C2O)C(O)C(O)C1O (stereo unspecified)
LC retention time, min: 4.44

Compound: CC1CCC2(C(=O)O)CCC3(C)C(=CC(=O)C4C5(C)CCC(OC(=O)c6ccccc6)C(C)(C)C5CCC43C)C2C1C (stereo unspecified)
LC retention time, min: 11

Compound: CCC=CCC=CCC(O)C=CC=CC=CC(O)CCCC(=O)O (stereo unspecified)
LC retention time, min: 4.99

Compound: C=CC(C)(CCC=C(C)CCC=C(C)CCC(OC1OC(CO)C(O)C(O)C1O)C(C)(C)O)OC1OC(CO)C(O)C(O)C1O (stereo unspecified)
LC retention time, min: 4.81

Compound: CC(C)SC(C)C
LC retention time, min: 1.02

Compound: Nc1nc2c(ncn2CCC(CO)CO)c(=O)[nH]1
LC retention time, min: 1.03

Compound: Oc1cc(O)c2c(c1)OC(c1cc(O)c(O)c(O)c1)C(O)C2 (stereo unspecified)
LC retention time, min: 1.05

Compound: NC(=O)c1cccnc1
LC retention time, min: 1.06

Compound: CCCCC(S)CCOC (stereo unspecified)
LC retention time, min: 0.75

---

- Protocol details: Waters ACQUITY UPLC HSS T3, 0.4 mL/min; A: water + 0.1% formic acid; B: acetonitrile + 0.1% formic acid; gradient (min/%B) 0/5 1.5/5 12/95 14/95 14.01/100 17/100
- Condition label: stereoisomer not certain
Listed here are molecules together with their documented LC retention time.

Molecule: CSCCC(N)C(=O)NC(CCCN=C(N)N)C(=O)O (stereo not given)
LC retention time, min: 3.75
--
Molecule: CCC=CCC(O)C(O)C=CC=CC=CC=CC(O)CC=CCCC(=O)O (stereo not given)
LC retention time, min: 5.01
--
Molecule: NCCS(=O)(=O)O
LC retention time, min: 0.777
--
Molecule: CCC1OC(=O)C(C)C(OC2CC(C)(O)C(O)C(C)O2)C(C)C(O)C(C)(O)CC(C)C(=O)C(C)C(O)C1C (stereo not given)
LC retention time, min: 9.82
--
Molecule: O=C(Oc1cc(O)cc(O)c1C(=O)O)c1ccc(O)c(O)c1
LC retention time, min: 1.15
--
Molecule: CC(=CC(O)C1OC1(C)C)C1CCC2(C)C1C(O)CC1C3(C)CCC(O)C(C)(C)C3C(OC3OC(CO)C(O)C(O)C3O)CC12C (stereo not given)
LC retention time, min: 9.9
--
Molecule: CCCCCCCCC=CCCCCCCCC(=O)OC(CC(=O)[O-])C[N+](C)(C)C (stereo not given)
LC retention time, min: 9.56
--
Molecule: COc1ccc(COC2OC(CO)C(O)C(O)C2OS(=O)(=O)O)cc1 (stereo not given)
LC retention time, min: 0.842
--
Molecule: CCCCCCCCCCCCCCCCCC(=O)OC(CO)COP(=O)(O)OCC(O)CO (stereo not given)
LC retention time, min: 5.64
--
Molecule: O=C(O)CCNCC(=O)O
LC retention time, min: 0.786
--
Molecule: CCCCCC(=O)CCC1C=CC(=O)C1CC=CCCCC(=O)O (stereo not given)
LC retention time, min: 4.99
--
Molecule: CCC(C)C(N)C(=O)NC(CCC(=O)O)C(=O)O (stereo not given)
LC retention time, min: 1.05
--
Molecule: Cc1cc(O)c2c(c1O)C(=O)C1=C(C2=O)C(=O)C2C(O)C1C1C(O)CC(=O)C3=C(O)c4c(O)cc(C)c(O)c4C(=O)C321 (stereo not given)
LC retention time, min: 1.11
--
Molecule: Nc1[nH]c(=O)nc2c1ncn2C1CC(O)C(COP(=O)(O)O)O1 (stereo not given)
LC retention time, min: 0.934
--
Molecule: CC1OC(CC(=O)O)Cc2c1c(O)c1c(O)c(-c3cc(=O)c4c(=O)c5c(c(=O)c=4c3=O)C(C)OC(CC(=O)O)C5)cc(O)c1c2O (stereo not given)
LC retention time, min: 1.05
